Target: human EP3 receptor (Homo sapiens, UniProt P43115)
Assay: Cellular in vitro assay for determining EP3 receptor activity (human EP3 cell line, sulprostone-stimulated calcium luminescence)
Settings: CHO cells expressing human EP3 and mitochondrial Clytin; antagonist mode, sulprostone at EC50; read-out: EP3 CHO mtCLY ANTAG IC50
endpointName: IC50 (nM)
Provide the reading as a plain figure in nM.

C[C@H](NC(=O)c1nn2cc(-c3cc(F)c(Cl)c(F)c3)[nH]c(=O)c2c1C1CC1)C1CC1	1.16
Cc1cccc2ncc(-c3cn4nc(C(=O)N[C@H](C)c5ccccc5)c(C(C)C)c4c(=O)[nH]3)cc12	1.2
Cc1cccc2ncc(-c3cn4nc(C(=O)NC5(c6ccccc6)CCCC5)c(C(C)C)c4c(=O)[nH]3)cc12	2.35
Cc1ccc(-c2cn3nc(C(=O)N[C@H](CCO)c4ccc(F)cc4)c(C#N)c3c(=O)[nH]2)cc1C	1.5
Cc1cc(-c2cn3nc(C(=O)NCC(N)C(F)(F)F)c(C4CC4)c3c(=O)[nH]2)ccc1C(F)(F)F (racemic) [6-130]	29.5

Data request: Supply recorded IC50 for CCn1cc(CNC(=O)c2nn3cc(-c4ccc5ccccc5c4)[nH]c(=O)c3c2C(F)(F)F)c(C)n1 here.
Data returned: 1.2

Data request: Report measured IC50; entry is COCc1c(C(=O)N[C@H](CCO)c2ccc(F)cc2)nn2cc(-c3ccc4ccccc4c3)[nH]c(=O)c12
Data returned: 0.488

====

Target: UniProtKB P43115
Test: Cellular in vitro assay for determining EP3 receptor activity (human EP3 cell line, sulprostone-stimulated calcium luminescence)
Details: CHO cells expressing human EP3 and mitochondrial Clytin; antagonist mode, sulprostone at EC50; read-out: EP3 CHO mtCLY ANTAG IC50
Field: label. Allowed values: True (IC50 < 2 nM) or False (IC50 >= 2 nM).

Data request: Criterion: IC50 strictly below 2 nM. Is it met by COc1cc(-c2cn3nc(C(=O)N[C@H](CCO)c4ccc(F)cc4)c(C4CC4)c3c(=O)[nH]2)ccc1Cl [6-482] ?
Data returned: True

Data request: Given Cc1cc(-c2cn3nc(C(=O)NCCC(O)C(F)(F)F)c(C4CC4)c3c(=O)[nH]2)ccc1Cl (single isomer, unassigned) [6-310] , is recorded IC50 strictly lower than 2 nM?
Data returned: True

Data request: Quick check: does C[C@H](NC(=O)c1nn2cc(-c3ccc(Cl)c(Cl)c3)[nH]c(=O)c2c1C1CC(F)(F)C1)C1CC1 [6-553] have IC50 under 2 nM?
Data returned: False

Data request: Just wondering, is IC50 of CC(NC(=O)c1cc2c(=O)[nH]c(-c3ccc4ccccc4c3)cn2n1)c1ccc(O)cc1 (single isomer, unassigned) [6-542] below 2 nM?
Data returned: False

Data request: For Cc1ccc([C@@H](C)NC(=O)c2nn3cc(-c4ccc5ccccc5c4)[nH]c(=O)c3c2C#N)cc1 [Example 3-53] , is the recorded IC50 below the cut-off of 2 nM?
Data returned: True

====

Target: human EP3 receptor (Homo sapiens)
Assay: Cellular in vitro assay for determining EP3 receptor activity (human EP3 cell line, sulprostone-stimulated calcium luminescence)
Conditions: CHO cells expressing human EP3 and mitochondrial Clytin; antagonist mode, sulprostone at EC50; read-out: EP3 CHO mtCLY ANTAG IC50
Consider the following compounds and their measured pIC50 readings.
Recall that pIC50 is obtained by taking minus log10 of the concentration measured in molar.

Consider the following illustrative entries.
Cc1c(C(=O)N[C@H](CO)c2ccccc2)nn2c(C)c(-c3ccc4ccccc4c3)[nH]c(=O)c12 [Example 3-2]	8.92
COC[C@@H](NC(=O)c1cc2c(=O)[nH]c(-c3ccc4c(c3)OCCO4)cn2n1)c1ccccc1 [6-49]	8.80
Cc1cc(-c2cn3nc(C(=O)N[C@H](C)C(C)C)c(C(F)(F)F)c3c(=O)[nH]2)ccc1Cl [6-217]	8.71
Cc1ccc(-c2cn3nc(C(=O)NC(C)C4CC4)c(C(F)(F)F)c3c(=O)[nH]2)cc1F (racemic) [6-147]	8.25
CCn1cnnc1CNC(=O)c1nn2cc(-c3cnc4cccc(C)c4c3)[nH]c(=O)c2c1C(C)C [Example 4-20]	8.54
CC(C)(O)[C@@H](NC(=O)c1nn2cc(-c3cccc(Cl)c3)[nH]c(=O)c2c1C1CC1)c1ccc(F)cc1 [6-677]	9.35

Data request: Given COCc1c(C(=O)N[C@H](CCO)c2ccccc2)nn2cc(-c3ccc4ccccc4c3)[nH]c(=O)c12 [Example 1-76] , report its pIC50 on human EP3 receptor (Homo sapiens).
Data returned: 9.14

Data request: Report the value of pIC50 obtained on human EP3 receptor (Homo sapiens) for COc1ccc2c(c1)CCCC2NC(=O)c1nn2cc(-c3cnc4cccc(C)c4c3)[nH]c(=O)c2c1C(C)C (stereo not shown) [Example 4-64] .
Data returned: 8.59

Data request: Report value only: pIC50, human EP3 receptor (Homo sapiens), Cc1ccc(-c2cn3nc(C(=O)NC4CCN(CC(F)(F)F)C4)c(C4CC4)c3c(=O)[nH]2)cc1F (single isomer, unassigned) [6-391]
Data returned: 8.48

Data request: Enter measured pIC50, system human EP3 receptor (Homo sapiens), for the compound shown: Cc1c(C(=O)NCc2ccnn2C)nn2c(C)c(-c3ccc4ccccc4c3)[nH]c(=O)c12 [Example 3-11]
Data returned: 8.69

Data request: Look up and report measured pIC50 (human EP3 receptor (Homo sapiens)) for the following compound: CC(NC(=O)c1cc2c(=O)[nH]c(-c3ccc4ccccc4c3)cn2n1)c1ccn(C)n1 (stereo not shown) [Example 2-49]
Data returned: 8.07

Data request: Specify pIC50 for O=C(N[C@H](CN1CCOCC1)c1ccc(F)cc1)c1cc2c(=O)[nH]c(-c3ccc4ccccc4c3)cn2n1 [6-67] , system human EP3 receptor (Homo sapiens).
Data returned: 8.80

Data request: State recorded pIC50 with human EP3 receptor (Homo sapiens), entry O=C(N[C@@H]1CCCc2ccccc21)c1cc2c(=O)[nH]c(-c3ccc4ccccc4c3)cn2n1 [Example 2-43] , no comment.
Data returned: 8.43

Data request: Lab note: human EP3 receptor (Homo sapiens) assay, enter pIC50 for Cc1ccc(-c2cn3nc(C(=O)NC4(c5ccc(F)cc5)CN(CC(F)(F)F)C4)c(C(F)(F)F)c3c(=O)[nH]2)cc1Cl [6-201] here
Data returned: 8.52

Data request: Tell me its pIC50 on human EP3 receptor (Homo sapiens): COc1ccccc1C(C)NC(=O)c1nn2c(C)c(-c3ccc4ccccc4c3)[nH]c(=O)c2c1C (stereo not shown) [Example 3-28]
Data returned: 8.37

Data request: Tell me pIC50 of Cc1cccc2ncc(-c3cn4nc(C(=O)NCc5cccc(CN(C)C)c5)c(C(C)C)c4c(=O)[nH]3)cc12 [Example 4-2] when tested on human EP3 receptor (Homo sapiens).
Data returned: 8.55

Data request: Determine reported pIC50 for Cc1cccc2ncc(-c3cn4nc(C(=O)NC(C)(C)c5cc(Cl)cc(Cl)c5)c(C(C)C)c4c(=O)[nH]3)cc12 [Example 4-8] ; test system: human EP3 receptor (Homo sapiens).
Data returned: 8.37

Data request: Would you please give the reported pIC50 of Cc1ccc(-c2cn3nc(C(=O)NCC(O)C(F)(F)F)c(C)c3c(=O)[nH]2)cc1F (single isomer, unassigned) [6-411] with human EP3 receptor (Homo sapiens)?
Data returned: 7.49

Data request: Fill in: pIC50 on human EP3 receptor (Homo sapiens), entry Cc1cccc2ncc(-c3cn4nc(C(=O)NCCOCC(F)(F)F)c(C(C)C)c4c(=O)[nH]3)cc12 [Example 4-39]
Data returned: 8.73

====

Molecular target: human EP3 receptor (Homo sapiens, UniProt P43115)
Sequence (P43115 1-390): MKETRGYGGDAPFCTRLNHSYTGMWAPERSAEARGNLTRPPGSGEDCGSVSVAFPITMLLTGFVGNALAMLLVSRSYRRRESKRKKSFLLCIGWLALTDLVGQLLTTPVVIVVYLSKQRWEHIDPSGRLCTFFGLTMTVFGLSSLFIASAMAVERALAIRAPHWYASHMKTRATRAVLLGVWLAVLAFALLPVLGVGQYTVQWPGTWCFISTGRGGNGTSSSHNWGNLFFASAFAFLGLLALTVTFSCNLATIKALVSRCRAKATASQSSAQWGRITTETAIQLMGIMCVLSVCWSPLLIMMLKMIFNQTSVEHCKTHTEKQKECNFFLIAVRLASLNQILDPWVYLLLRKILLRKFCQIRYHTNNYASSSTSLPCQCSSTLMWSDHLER
Experiment: Cellular in vitro assay for determining EP3 receptor activity (human EP3 cell line, sulprostone-stimulated calcium luminescence)
Settings: CHO cells expressing human EP3 and mitochondrial Clytin; antagonist mode, sulprostone at EC50; read-out: EP3 CHO mtCLY ANTAG IC50
endpointName: pIC50
Notebook: values listed as pIC50 are -log10 of the concentration (mol/L).

Known results for compounds:
Cc1cc(-c2cn3nc(C(=O)NCC(C)(N)C(F)(F)F)c(C4CC4)c3c(=O)[nH]2)ccc1Cl (single isomer, unassigned) [6-321]	8.77
COc1ccc(C(C)NC(=O)c2nn3c(C)c(-c4ccc5ccccc5c4)[nH]c(=O)c3c2C)cc1 (stereo not shown) [Example 3-57]	8.53

Data request: Name the recorded pIC50 of the compound listed here: CC(C)(O)[C@@H](NC(=O)c1nn2cc(-c3ccc(Cl)c(F)c3)[nH]c(=O)c2c1C(F)F)c1ccc(F)cc1 [6-632]
Data returned: 8.20

Data request: Provide pIC50 value for the following compound: Cc1ccc(-c2cn3nc(C(=O)NCC(O)C(F)(F)F)c(C4CC4)c3c(=O)[nH]2)cc1F (racemic) [Example 1-159]
Data returned: 8.70

Data request: Given the compound O=C(N[C@@H](c1ccc(F)cc1)C(F)(F)CO)c1nn2cc(-c3cc(F)c(Cl)cc3F)[nH]c(=O)c2c1C1CC1 [6-585] , write its reported pIC50.
Data returned: 8.52

Data request: Answer with the recorded pIC50 for the compound listed here: Cc1c(C(=O)N[C@H]2c3ccccc3C[C@H]2O)nn2c(C)c(-c3ccc4ccccc4c3)[nH]c(=O)c12 [Example 3-67]
Data returned: 8.69

Data request: Please indicate pIC50 recorded for O=C(N[C@@H](c1ccc(F)cc1)C(F)(F)CO)c1nn2cc(-c3cc(F)c(Cl)c(F)c3)[nH]c(=O)c2c1C1CC1 [6-474]
Data returned: 8.79

All figures here come from patent US20220324865A1.
